Reference source: the RNAGym collection of RNA variant scans (doi:10.7554/elife.90254)

Measured self-cleavage, listed per entry.
B1: LINE1-mini (parent)
chain: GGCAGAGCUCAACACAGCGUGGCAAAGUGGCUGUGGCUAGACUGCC

Variants of: B1
Protocol Summary: self-cleavage, relative activity (ratio to wild type); higher = more cleavage; in vitro, sequencing; the parent is a self-cleaving ribozyme
Form rule: numeric answer, no unit written next to it.

Solved entries:
A4C G17U; 0.08
C13U C46A; 0.22
G33U A39U; 0.15
G30C G40U; 0.16
G5A U43A; 0.05
G7A A11G; 0.02
U38C C46U; 0.44
A6G A25G; 0.07
C8G C23U; 0.1
G21A C42U; 1.82

[in] # lookup: self-cleavage of G1C A41C
[out] 0.02

[in] What measured self-cleavage goes with A11U A16C ?
[out] 0.02

[in] Item under review: C23G A41G . Reported self-cleavage?
[out] 0.37
